The origin of these recorded values is patent US20230087118A1.

target.system: IRAK4 (Homo sapiens, UniProt Q9NWZ3)
Sequence (Q9NWZ3 whole entry): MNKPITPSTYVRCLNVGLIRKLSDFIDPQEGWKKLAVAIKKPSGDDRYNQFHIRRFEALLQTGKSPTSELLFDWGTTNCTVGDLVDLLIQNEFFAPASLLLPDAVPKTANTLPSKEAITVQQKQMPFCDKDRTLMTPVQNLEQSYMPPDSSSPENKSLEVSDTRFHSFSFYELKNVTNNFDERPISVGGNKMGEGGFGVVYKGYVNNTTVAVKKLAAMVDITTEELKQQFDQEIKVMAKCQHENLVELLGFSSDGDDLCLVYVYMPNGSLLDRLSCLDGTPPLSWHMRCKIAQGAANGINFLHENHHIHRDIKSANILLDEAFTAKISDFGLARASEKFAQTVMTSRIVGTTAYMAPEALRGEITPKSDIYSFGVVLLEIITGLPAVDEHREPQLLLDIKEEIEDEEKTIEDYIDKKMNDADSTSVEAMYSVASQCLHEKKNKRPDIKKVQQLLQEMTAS
assay.notes: biochemical
pIC50: −log10 of the molar value.
measured.parameter: pIC50

Recorded results for 3 compounds are shown here.
>>> print(df.to_string())
                                   compound  measurement
0  CC(C)Oc1nc2nc(C34COC(C)(C3)C4)cn2cc1C(=O)Nc1ccn(C(F)F)n1 [Example 361]         8.43
1  COc1cc2nc(C3CCOCC3)cn2cc1C(=O)Nc1cccc(C(F)F)c1 [Example 125]         7.89
2  COc1cc2nc(C3CCOCC3)cn2cc1C(=O)Nc1ccnc(C)c1OC [Example 201]         6.42

(1) CCO[C@H]1C[C@@H](Oc2cc3nc(C4CCOCC4)cn3cc2C(=O)Nc2cccc(C(F)F)n2)C1 [Example 436]
(2) COc1ncccc1NC(=O)c1cn2cc([C@]34CC[C@](C)(C3)OC4)nc2c(OC)n1 (single isomer, unassigned) [Example 586]
(3) COc1cc2nc(C3CCOCC3)cn2cc1C(=O)Nc1cccc(Cl)c1 [Example 144]
(4) C[C@]12CC[C@](c3cn4cc(C(=O)Nc5cccc(C(F)F)n5)cc(OC(F)F)c4n3)(CO1)C2 (single isomer, unassigned) [Example 585]
Task field, ranking: reported pIC50, descending order. Please respond with the labels ordered as the question requires.
1, 2, 4, 3
(1: 9.10, 2: 8.70, 4: 7.94, 3: 7.60)
